Each recorded value in this set is attributed to patent US20080306096A1.

Experimental system: human recombinant, purified wild type His-B-Raf protein kinase (Homo sapiens)
Construct: His
Sequence (P15056 whole entry): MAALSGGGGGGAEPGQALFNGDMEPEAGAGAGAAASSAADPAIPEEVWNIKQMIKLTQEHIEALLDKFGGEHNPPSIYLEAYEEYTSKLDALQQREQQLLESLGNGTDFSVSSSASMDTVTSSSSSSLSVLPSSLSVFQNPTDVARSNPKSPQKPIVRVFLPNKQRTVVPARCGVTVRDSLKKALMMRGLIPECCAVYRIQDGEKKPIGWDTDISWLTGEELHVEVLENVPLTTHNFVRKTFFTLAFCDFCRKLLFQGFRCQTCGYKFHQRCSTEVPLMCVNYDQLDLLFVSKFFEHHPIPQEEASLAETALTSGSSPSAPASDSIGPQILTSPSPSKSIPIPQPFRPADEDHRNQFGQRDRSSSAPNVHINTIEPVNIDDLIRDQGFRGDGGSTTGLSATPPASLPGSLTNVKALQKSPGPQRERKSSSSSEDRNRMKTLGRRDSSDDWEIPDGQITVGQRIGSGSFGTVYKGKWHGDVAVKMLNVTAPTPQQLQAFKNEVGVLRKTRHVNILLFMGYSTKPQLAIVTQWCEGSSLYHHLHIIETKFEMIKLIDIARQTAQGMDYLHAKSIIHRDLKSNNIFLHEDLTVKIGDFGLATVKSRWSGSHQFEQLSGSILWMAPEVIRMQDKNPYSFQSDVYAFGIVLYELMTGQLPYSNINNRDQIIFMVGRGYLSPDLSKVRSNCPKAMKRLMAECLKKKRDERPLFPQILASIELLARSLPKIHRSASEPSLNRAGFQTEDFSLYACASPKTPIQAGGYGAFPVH
Protocol text: B-Raf In Vitro ELISA Assay
Recorded conditions: phosphorylation of MEK1; 2.5 nM B-Raf, 0.15 μM MEK1, 10 μM ATP; 1 hour preincubation at 25° C.
Test readout: IC50 (nM)
Form entry: value (nM) — number only.

// field: IC50; key: COc1cc2ncnc(Nc3cc(NC(=O)c4cccc(C5(C#N)CCC5)c4)ccc3C)c2cc1OC [Example 7] ; value = 193

// field: IC50; key: COc1cc2c(Nc3cc(NC(=O)c4cccc(C(C)(C)C#N)c4)ccc3C)ncnc2cc1OCc1ccccc1 [Example 5] ; value = 1100

// field: IC50; key: COc1cc2ncnc(Nc3cc(NC(=O)c4cc(C(F)(F)F)ccc4F)ccc3C)c2cc1OC [Example 15] ; value = 370
